System: CAKI-1 renal
# GI50 per entry

Tell me reported GI50 for COc1ccc(-c2cc(/C=C3\C(=O)Nc4ccc(Cl)cc43)[nH]n2)cc1 , tested with CAKI-1 renal. 3.31 µM

Return GI50 measured with CAKI-1 renal given this compound: O=C(c1ccc2ncc(-c3nc(NC4CC4)ncc3F)n2c1)N1CCOCC1 1.33 µM

CAKI-1 renal / GI50 / O=[N+]([O-])c1ccc(N/N=C/c2c(O)ccc3ccccc23)nc1 : value? 0.518 µM

Missing value: GI50, CAKI-1 renal, entry Cn1ncc2c(N)nc(N3CCCCC3)nc21 . Fill in? 29 µM

For the record COc1cc(/C=C\[N+](=O)[O-])ccc1OCc1ccccc1 , what value of GI50 is listed for CAKI-1 renal? 3.05 µM

Source: PubChem BioAssay (NCI)
